Reference for the values: ChEMBL document CHEMBL3352800

Tested on: Pseudomonas aeruginosa
Experiment: Antibacterial activity against Pseudomonas aeruginosa NCIM-2036 after 24 hrs by broth dilution method
Type: functional
Conditions: NCIM-2036, 24 h
For each entry below, report its MIC value.
Quick reminder: number only, in µg/mL, skip the unit.

Find the measured MIC: item S=C(Nc1nc(Nc2ccc(Cl)cc2)nc(Nc2ccc(Cl)cc2)n1)N1N=C(c2ccccc2)CC1c1ccccc1Cl (configuration not stated) , target or system Pseudomonas aeruginosa.
15.6

Can you check O=[N+]([O-])c1ccc(C2CC(c3ccccc3)=NN2C(=S)Nc2nc(Nc3ccc(F)cc3)nc(Nc3ccc(F)cc3)n2)cc1 (configuration not stated) next?
31.2

# repeat for S=C(Nc1nc(Nc2ccc(Cl)cc2)nc(Nc2ccc(Cl)cc2)n1)N1N=C(c2ccccc2)CC1c1ccccc1 (configuration not stated)
31.2

Also Fc1ccc(Nc2nc(NC(=S)N3N=C(c4ccccc4)CC3c3ccccc3Cl)nc(Nc3ccc(F)cc3)n2)cc1 (configuration not stated) ?
15.6

And O=[N+]([O-])c1cccc(Nc2nc(NC(=S)N3N=C(c4ccccc4)CC3c3ccccc3[N+](=O)[O-])nc(Nc3cccc([N+](=O)[O-])c3)n2)c1 (configuration not stated) ?
125

Query O=[N+]([O-])c1cccc(Nc2nc(NC(=S)N3N=C(c4ccccc4)CC3c3ccccc3Cl)nc(Nc3cccc([N+](=O)[O-])c3)n2)c1 (configuration not stated) next
15.6

// repeat for O=[N+]([O-])c1ccc(C2CC(c3ccccc3)=NN2C(=S)Nc2nc(Nc3ccc(Cl)cc3)nc(Nc3ccc(Cl)cc3)n2)cc1 (configuration not stated) and report
62.5

----------
Tested on: Staphylococcus aureus
Assay: Antibacterial activity against Staphylococcus aureus NCIM-2079 after 24 hrs by broth dilution method
Format: functional
Settings: NCIM-2079, 24 h
Measured Metric: MIC (µg/mL)
The reply should contain only the number, in µg/mL.

What value of MIC has been recorded for this entry: Fc1ccc(Nc2nc(NC(=S)N3N=C(c4ccccc4)CC3c3ccccc3Cl)nc(Nc3ccc(F)cc3)n2)cc1 (stereo unspecified)
15.6

Subsequent entry: O=[N+]([O-])c1cccc(Nc2nc(NC(=S)N3N=C(c4ccccc4)CC3c3ccccc3)nc(Nc3cccc([N+](=O)[O-])c3)n2)c1 (stereo unspecified)
7.81

Quick one: O=[N+]([O-])c1cccc(Nc2nc(NC(=S)N3N=C(c4ccccc4)CC3c3ccc(Cl)cc3)nc(Nc3cccc([N+](=O)[O-])c3)n2)c1 (stereo unspecified)
15.6

Note, next up: S=C(Nc1nc(Nc2ccc(Cl)cc2)nc(Nc2ccc(Cl)cc2)n1)N1N=C(c2ccccc2)CC1c1ccccc1 (stereo unspecified)
15.6

Next compound: S=C(Nc1nc(Nc2ccc(Cl)cc2)nc(Nc2ccc(Cl)cc2)n1)N1N=C(c2ccccc2)CC1c1ccccc1Cl (stereo unspecified)
15.6

Now consider O=[N+]([O-])c1cccc(Nc2nc(NC(=S)N3N=C(c4ccccc4)CC3c3ccccc3[N+](=O)[O-])nc(Nc3cccc([N+](=O)[O-])c3)n2)c1 (stereo unspecified) and answer again.
15.6

Another compound to check: Fc1ccc(Nc2nc(NC(=S)N3N=C(c4ccccc4)CC3c3ccccc3)nc(Nc3ccc(F)cc3)n2)cc1 (stereo unspecified)
7.81

Now this one: O=[N+]([O-])c1ccc(C2CC(c3ccccc3)=NN2C(=S)Nc2nc(Nc3ccc(F)cc3)nc(Nc3ccc(F)cc3)n2)cc1 (stereo unspecified)
31.2

Next entry: C=CC1=C(C(=O)O)N2C(=O)[C@@H](NC(=O)/C(=N\OCC(=O)O)c3csc(N)n3)[C@H]2SC1 [CEFIXIME]
7.81

Lookup O=[N+]([O-])c1cccc(Nc2nc(NC(=S)N3N=C(c4ccccc4)CC3c3ccccc3Cl)nc(Nc3cccc([N+](=O)[O-])c3)n2)c1 (stereo unspecified)
15.6

Entry O=[N+]([O-])c1ccccc1C1CC(c2ccccc2)=NN1C(=S)Nc1nc(Nc2ccc(Cl)cc2)nc(Nc2ccc(Cl)cc2)n1 (stereo unspecified) please
62.5
